- STUDY_SYSTEM: KRAS G12V binding to BRAF (Homo sapiens (Human), UniProt P01116+P62937, G12V)
- Sequence (P01116-2 other isoform, or with tags, fused parts or gaps G12V): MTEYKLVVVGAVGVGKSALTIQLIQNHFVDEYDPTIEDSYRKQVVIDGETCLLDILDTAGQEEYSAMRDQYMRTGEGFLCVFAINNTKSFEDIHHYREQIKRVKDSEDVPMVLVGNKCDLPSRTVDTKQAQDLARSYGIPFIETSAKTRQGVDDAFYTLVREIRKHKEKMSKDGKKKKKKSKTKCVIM
- Sequence (P62937 whole entry): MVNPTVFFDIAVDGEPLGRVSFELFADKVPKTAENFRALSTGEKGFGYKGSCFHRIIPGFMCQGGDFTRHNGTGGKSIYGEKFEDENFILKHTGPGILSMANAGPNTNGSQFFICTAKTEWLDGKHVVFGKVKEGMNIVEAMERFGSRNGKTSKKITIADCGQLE
- ASSAY_PROCEDURE: KRAS-BRAF with CYPA (500 nM) interaction assay (TR-FRET), G12V
pIC50 values by entry
pIC50 field: float, defined as -log10 of concentration (mol/L).

COMPOUND | ENDPOINT_VALUE
CO[C@@H](C)c1ncc(N2CCN(CC(F)(F)F)CC2)cc1-c1c2c3cc(c(F)cc3n1CC(F)(F)F)-c1csc(n1)C[C@H](NC(=O)[C@H](C(C)C)N(C)C(=O)C1(F)CCN(C(=O)[C@H](F)Cl)CC1)C(=O)N1CCC[C@H](N1)C(=O)OCC(C)(C)C2 (atropisomer, axis not shown; (M)) | 6.22

Lab note: next compound to report on.
Lab book: pIC50 of CCn1c(-c2cc(N3CCN(C)CC3)cnc2[C@H](C)OC)c2c3cc(c(F)cc31)-c1csc(n1)C[C@H](NC(=O)[C@H](C(C)C)N1CC[C@]3(CCN(C(=O)[C@H](F)Cl)C3)C1=O)C(=O)N1CCC[C@H](N1)C(=O)OCC(C)(C)C2 (atropisomer, axis not shown; (M)) noted as 5.70
